Values were extracted from PubChem BioAssay.

test description: reversal of MRP1-mediated doxorubicin resistance, pilot screen, H69AR cells, doxorubicin co-treatment (AID 601)
assay conditions: H69AR cells + 2 uM doxorubicin, CellTiter-Glo, 72 h; measured here: viability with 2 uM doxorubicin; at 10 µM; stronger effect = lower value
# note: exactly 90% is not below, so it is label 0; use label 1 for viability strictly under it

{"compound": "CCOc1ccc(C2CC(c3cccc(C)c3)n3ncnc3N2)cc1 (stereo unspecified)", "discrete label": "label 0"}
{"compound": "CN(C(=O)c1ccccc1Cl)c1ccccc1", "discrete label": "label 1"}
{"compound": "Cc1ccc2[nH]c3c(N4CCOCC4)ncnc3c2c1", "discrete label": "label 0"}
{"compound": "CCOc1cc(C2c3c(n[nH]c3C)C(=O)N2c2ccc(Br)cc2)ccc1O (stereo unspecified)", "discrete label": "label 1"}

----------
# viability per record follows
test description: growth inhibitors of H69AR lung tumor, primary screen, human, duplicate replicates (AID 580);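 further: 100% = mean luminescence of untreated wells and 0% = no signal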
assay conditions: H69AR lung tumor cells viability, ATP luminescence, 72 h; at 10 µM; stronger effect = lower value

{"compound": "CCN1C(=O)OC2(CCCCC2)C1(C)O (stereo unspecified)", "value unit": "%", "viability": 105}
{"compound": "O=C1C(Cl)=C(N2CCOCC2)C(=O)N1CCc1ccccc1", "value unit": "%", "viability": 71.3}
{"compound": "N#Cc1c(NC(=O)CSc2nc(N)cc(=O)[nH]2)sc2c1CCCCCC2", "value unit": "%", "viability": 91.5}
{"compound": "O=S(=O)(NCCc1ccccn1)c1cccs1", "value unit": "%", "viability": 101}
{"compound": "CCOC(=O)c1ccc(CC2S/C(=C(\\C#N)C(C)=O)NC2=O)cc1 (stereo unspecified)", "value unit": "%", "viability": 89.6}
{"compound": "CCSc1nnc(-c2cccs2)o1", "value unit": "%", "viability": 92.3}
{"compound": "COC(=O)CCn1nnc(-c2cccs2)n1", "value unit": "%", "viability": 103}
{"compound": "CCOC(=O)N1CCN(c2c(NCCN(C)Cc3ccccc3)c(=O)c2=O)CC1", "value unit": "%", "viability": 99}
{"compound": "c1ccc(-n2c(Sc3cnccn3)nnc2-c2cccs2)cc1", "value unit": "%", "viability": 95.8}
{"compound": "CC(=O)N1CCN(Cc2ccc(Br)s2)CC1", "value unit": "%", "viability": 99.3}
{"compound": "Cc1c(C(=O)NCCC2=CCCCC2)oc2ccc(S(=O)(=O)N3CCC4(CC3)OCCO4)cc12", "value unit": "%", "viability": 48.1}
{"compound": "CCn1c(=O)cc(SCC(=O)N2CCOCC2)c2ccccc21", "value unit": "%", "viability": 85.4}
{"compound": "CSc1nnc(-c2ccc(NC(=O)CCc3ccccc3)cc2)n1C", "value unit": "%", "viability": 87}
{"compound": "CCOc1ccc(S(=O)(=O)NCC2CCCO2)c2cccnc12 (stereo unspecified)", "value unit": "%", "viability": 93.6}
{"compound": "COc1ccccc1NC(=O)c1cc2n(n1)C(C(F)(F)F)CC(c1ccc3c(c1)OCO3)N2 (stereo unspecified)", "value unit": "%", "viability": 73.3}
{"compound": "Cc1ccc(NC(=O)C2CCCN2C(=O)Oc2ccccc2)cc1 (stereo unspecified)", "value unit": "%", "viability": 91.5}
{"compound": "COc1ccccc1N1CC(O)=C(c2nc3ccccc3c(=O)[nH]2)C1=N", "value unit": "%", "viability": 71.7}
{"compound": "CCCC(C)c1nnc(NC(=O)C2CCCO2)s1 (stereo unspecified)", "value unit": "%", "viability": 93.9}
{"compound": "CCCCCOC(=O)CSc1nnc(-c2cc(OC)c(OC)c(OC)c2)o1", "value unit": "%", "viability": 104}
{"compound": "CC(C)(C)C(=O)N=C1SC2CS(=O)(=O)CC2N1c1ccc2c(c1)OCO2 (stereo unspecified)", "value unit": "%", "viability": 106}
{"compound": "CCN1CCc2c(C#N)c(N3CCOCC3)nc(NCc3ccccc3)c2C1", "value unit": "%", "viability": 81.3}
{"compound": "Cn1c(=O)c2c(nc(NCCc3ccccc3)n2CC(=O)NCCc2ccccc2)n(C)c1=O", "value unit": "%", "viability": 79}
{"compound": "N[C@@H](Cc1ccccc1)c1nnc2sc(SCc3ccccc3)nn12", "value unit": "%", "viability": 87.9}
{"compound": "CCN(CC)S(=O)(=O)c1ccc(C(=O)Oc2ccc3c(c2)OCO3)cc1", "value unit": "%", "viability": 90.5}
{"compound": "CN1CCc2nc(SCC(=O)Nc3ccc(F)cc3)c(C#N)cc2C1", "value unit": "%", "viability": 97}
{"compound": "CCCC(=O)Nc1cccc(NC(=O)CN2CCN(c3ccccc3OC)CC2)c1", "value unit": "%", "viability": 82.9}
{"compound": "O=C(NCC1CCCO1)C1c2ccccc2C(=O)N1C1CCCCCC1 (stereo unspecified)", "value unit": "%", "viability": 104}
{"compound": "O=C(COc1ncnc2ccccc12)NCc1ccc2c(c1)OCO2", "value unit": "%", "viability": 92.6}
{"compound": "CC1=Nn2c(nnc2-c2cc(-c3ccccc3)n[nH]2)SC1", "value unit": "%", "viability": 91.4}
{"compound": "Cc1cccc(N(CC(N)=O)S(C)(=O)=O)c1C", "value unit": "%", "viability": 92}
{"compound": "COc1cc(CNc2ccc(N3CCOCC3)c(C(=O)O)c2)ccc1OCC(N)=O", "value unit": "%", "viability": 99.9}
{"compound": "Cc1nc2ncnn2c(Nc2ccc3c(c2)OCCO3)c1C", "value unit": "%", "viability": 73.7}
{"compound": "Cc1ccc(C)c(S(=O)(=O)NCc2ccc(C(=O)N3CCN(C)CC3)cc2)c1", "value unit": "%", "viability": 91.7}
{"compound": "CC1(c2ccc(Cl)cc2)NC(=O)N(CC(=O)NC(=O)NCc2ccco2)C1=O (stereo unspecified)", "value unit": "%", "viability": 107}
{"compound": "CC1=C(C)C(=O)NC(Nc2nc(C)c3cc(C)cc(C)c3n2)N1 (stereo unspecified)", "value unit": "%", "viability": 17.2}
{"compound": "Cc1ccccc1N1C(N)=NC(N)=NC1(C)C", "value unit": "%", "viability": 90.6}
{"compound": "COc1cccc(NC(=O)NC2(C(F)(F)F)Oc3ccccc3O2)c1", "value unit": "%", "viability": 30.7}
{"compound": "Cc1cc(NC(=O)Cn2cnc3c2c(=O)n(C)c(=O)n3C)n(-c2ccccc2)n1", "value unit": "%", "viability": 108}
{"compound": "CCOc1ccc(NC(=O)CN2CCN(CC(=O)Nc3ccc(F)c(F)c3)CC2)cc1", "value unit": "%", "viability": 79.8}
{"compound": "Clc1ccc(Cc2nn3c(-c4ccncc4)nnc3s2)cc1", "value unit": "%", "viability": 96.9}
{"compound": "Cc1cccc(-n2nnc(C(=O)NCc3ccccc3)c2N)c1", "value unit": "%", "viability": 90.4}
{"compound": "COc1cccc(N2CCN(Cc3cccnc3)CC2)c1", "value unit": "%", "viability": 87.8}
{"compound": "COc1ccc(C2c3sc(=O)[nH]c3SC3C4CCC(C4)C23)cc1 (stereo unspecified)", "value unit": "%", "viability": 89.7}
{"compound": "Cc1ccccc1CNS(=O)(=O)c1ccc2c(c1)OCCO2", "value unit": "%", "viability": 109}
{"compound": "O=C(CNC(=O)c1ccccc1C(=O)O)c1ccccc1", "value unit": "%", "viability": 90}
{"compound": "Cc1cc(Br)ccc1NC(=O)CCN1C(=O)c2ccncc2C1=O", "value unit": "%", "viability": 95.6}
